# maps each entry to its melting point

INSERT INTO measurements (molecule, parameter, recorded_value) VALUES
  ('COc1cc(-c2ccc(O)c(C(C)(C)C)c2)cc(C=C2SC(N(C)C)=NC2=O)c1O', 'melting point', '272 to 274 °C'),
  ('CSC(Cc1ccc2oc(Cc3nc(-c4ccccc4)oc3C)cc2c1)C(=O)O (stereo not given)', 'melting point', '178 to 179 °C'),
  ('CCCCCN1C(=O)C2(COc3cc(-c4ccncc4)ccc32)c2ccccc21 (stereo not given)', 'melting point', '107 to 110 °C');

Query molecule follows.
*Q* Fill in: melting point of N#CCCC(=O)c1ccccc1 is ___
*A* 69 °C

---

Parameter: melting point

INSERT INTO measurements (compound, recorded_value) VALUES
  ('Cc1nnc(-c2ccc3occ(-c4ccc(S(C)(=O)=O)c(OC(F)(F)F)c4)c3c2)o1', '218 to 219 °C'),
  ('N#Cc1cc(Cl)cc2c1OC(C(F)(F)F)C(C(=O)O)=C2 (stereo not drawn)', '238 to 240 °C');

Query compound follows.
*Q* Fill in: melting point of Cc1ccc(S(=O)(=O)OCCCCCCCCCOc2cccc(C(N)=O)c2)cc1 is ___
*A* 78 to 80 °C

---

Parameter: melting point

Reference set, count: 2
INSERT INTO measurements (sample_smiles, parameter, recorded_value) VALUES
  ('CCN(CC)Cc1nc(Cn2cnc3c2c(=O)n(C)c(=O)n3C)no1', 'melting point', '68 to 70 °C'),
  ('O=c1[nH]c2sc(Br)c(Br)c2[nH]c1=O', 'melting point', '> 300 °C');

Query compound follows.
*Q* Fill in: melting point of CCOc1ccc(C(=O)Nc2ccc(C(C)(C)C#N)cc2)cc1OCC is ___
*A* 138 to 140 °C

---

# maps each entry to its melting point

Reference set, count: 5
INSERT INTO results (molecule, parameter, recorded_value) VALUES
  ('Cc1c(C)c2c(c(C)c1NC(=O)OC(C)(C)C)C(c1ccc(C(C)C)cc1)CO2 (stereo not given)', 'melting point', '121 to 122 °C'),
  ('Cc1c(N(C)C)ccc([N+](=O)[O-])c1CO', 'melting point', '42 to 43 °C'),
  ('CC(OC(=O)c1ccc(C(=O)O)cc1)c1ccc2c(c1)C(C)(C)CCC2(C)C (single isomer, unassigned; (-))', 'melting point', '138 °C'),
  ('Cc1ccc([N+](=O)[O-])cc1Nc1nccc(-c2cncc(Br)c2)n1', 'melting point', '206 to 208 °C'),
  ('O=C(NC1(C(=O)O)Cc2ccc(Br)cc2C1)c1cn2cc(-c3ccc(Cl)cc3)ccc2n1 (stereo not given)', 'melting point', '328 °C');

Query molecule follows.
*Q* Fill in: melting point of CCC(O)(CC)C1(c2onc(-c3ccc(O)cc3)c2-c2ccccc2)CC1 is ___
*A* 118 to 119 °C

---

# maps each entry to its melting point

Reference set, count: 3
INSERT INTO measurements (sample_smiles, parameter, recorded_value) VALUES
  ('CCCCCc1ccc(-c2ncc(C#N)cn2)cc1', 'melting point', '96 to 96.2 °C'),
  ('C=Cc1cc(O)cc2nc(-c3ccc(O)c(F)c3F)oc12', 'melting point', '276 to 278 °C'),
  ('CC(=Cc1ccc(C(C)C)cc1)COc1cc(C)c(NC=O)c(C)c1C', 'melting point', '153 to 155 °C');

Query compound follows.
*Q* Fill in: melting point of COC(=O)CCCCCCc1ncsc1C(=O)O is ___
*A* 113 to 114 °C

---

# maps each entry to its melting point

Reference set, count: 5
INSERT INTO assay_data (compound, recorded_value) VALUES
  ('COc1ccc2c(=O)cc[nH]c2c1O', '228 to 230 °C'),
  ('c1ccc2[nH]c(C34CC5CC(CC(C5)C3)C4)cc2c1', '48 °C'),
  ('CCc1ccc2c(c1NC(=O)CC1c3ccccc3Oc3ccccc31)OC(C)C2 (stereo not given)', '278 to 279 °C'),
  ('CCOC(=O)CC(NC(=O)C=CS(=O)c1ccccc1)C(=O)OCC (stereo not given)', '121 to 123 °C'),
  ('CCOC(=O)Cn1c(-c2ccc3c(c2)OCCO3)nc2ccccc21', '113 to 114 °C');

*Q* Fill in: melting point of COc1ccc(CCC(=O)c2cccc(O)c2)cc1OC is ___
*A* 132 to 134 °C

*Q* Fill in: melting point of O=C1CC[C@H](c2ccc(NC(=O)OCc3ccccc3)cc2)C1 is ___
*A* 96.3 to 98.5 °C

*Q* Fill in: melting point of O=C(O)[C@@H]1CN(C(=O)N(c2ccccc2)c2cccc(Cl)c2)CCN1C(=O)N(c1ccccc1)c1cccc(Cl)c1 is ___
*A* 200 to 203 °C

*Q* Fill in: melting point of CCCCCCCCCCCCc1cc(C(=O)OCC)no1 is ___
*A* 34 to 36 °C

*Q* Fill in: melting point of O=C(O)[C@H](Cc1ccc(C(F)(F)F)cc1)[C@@H](O)c1cccc2ccccc12 (racemic) is ___
*A* 151 to 152 °C

*Q* Fill in: melting point of CC(C)(C)OC(=O)N[C@H](CC(=O)OCc1ccccc1)C(=O)N[C@H](CO)C(C)(C)C is ___
*A* 186 to 187 °C

*Q* Fill in: melting point of Cc1cccc(Nc2cc(Nc3ccc(OCCN(C)C)cc3)ncn2)c1 is ___
*A* 219 to 222 °C

*Q* Fill in: melting point of O=Cc1cc(-c2ncco2)ccc1Br is ___
*A* 100 to 104 °C

*Q* Fill in: melting point of COCCOCn1cc(C(=O)NCc2ccc(Cl)cc2)c(=O)c2cc(CN3CCOCC3)ccc21 is ___
*A* 150 to 152 °C

*Q* Fill in: melting point of CCCCCC(O)C1C(=O)NC(C(=O)SCCNC(C)=O)(C(O)C2C=CCCC2)C1(C)O (stereo not given) is ___
*A* 80 °C

*Q* Fill in: melting point of CCC(=O)NC1CCc2ccccc2C1 (stereo not given) is ___
*A* 99 to 101 °C

*Q* Fill in: melting point of CC(C)(C)OC(=O)Nc1cc(N2CCC(OCCOC3CCCCO3)CC2)c(-c2ccc(F)cc2)cc1[N+](=O)[O-] (racemic) is ___
*A* 144 to 146 °C

*Q* Fill in: melting point of CCOC(=O)COc1ccc(C2=NNC(=O)CC2)cc1 is ___
*A* 127 to 129 °C

*Q* Fill in: melting point of COc1ccc(-c2cc(CN3CCN(C)CC3)c(=O)n(Cc3ccc(F)c(F)c3)n2)cc1F is ___
*A* 135 to 136 °C

*Q* Fill in: melting point of CC(=O)SCCCc1ccc(C2OCC(C)(C)CO2)cc1 is ___
*A* 44 °C

*Q* Fill in: melting point of CC(Oc1ccc(Br)cc1)c1ccnc2ncnn12 (stereo not given) is ___
*A* 121 to 124 °C

*Q* Fill in: melting point of CC(C)(C)[C@H]1CC[C@@H](Nc2nnc(CCc3cccnc3)c3ccccc23)CC1 is ___
*A* 155 to 157 °C

*Q* Fill in: melting point of CCN(CC)C(=O)c1c(C)cccc1Cl is ___
*A* 48 to 49 °C

---

Parameter: melting point

Reference set, count: 4
INSERT INTO assay_data (sample_smiles, parameter, recorded_value) VALUES
  ('Cn1ncc2c1-c1c(Oc3cccnc3)sc(C(=O)O)c1CC2', 'melting point', '124 to 125 °C'),
  ('CCCc1c(CSc2nnc(N)s2)ccc(C(C)=O)c1O', 'melting point', '143 to 147 °C'),
  ('O=C1CN2CCC(CC2)N1', 'melting point', '121 to 122 °C'),
  ('O=S(=O)(Nc1ncncc1-c1ccc(Cl)cc1)c1ccc(O)cc1', 'melting point', '231 to 232 °C');

Query compound follows.
*Q* Fill in: melting point of CCCCc1nc(CO)c(C(=O)O)n1Cc1ccc(-c2ccccc2-c2nnn[nH]2)cc1 is ___
*A* 215 to 217 °C

---

# maps each entry to its melting point

Reference set, count: 5
INSERT INTO assay_data (compound, parameter, recorded_value) VALUES
  ('CCOC(=O)C(=CNc1coc2ccc(Cl)cc2c1=O)C(=O)OCC', 'melting point', '143 to 145 °C'),
  ('CN1CCN(C(=O)OC2c3cc(Cl)ccc3C(=O)N2c2ccc3ccc(Cl)nc3n2)CC1 (stereo unspecified)', 'melting point', '280 °C'),
  ('CC(CCCC(C)(C)O)C1CCC2C3C=CC4=CC(=O)C5OC5C4(C)C3CCC12C (stereo unspecified)', 'melting point', '162 to 163 °C'),
  ('COc1ccc(CNC(=O)C23CC4CC(CC(C4)C2)C3)cc1', 'melting point', '91 to 94 °C'),
  ('Nc1ccc(Nc2ncnc3cc(-c4ccccc4)sc23)cc1', 'melting point', '210 to 211 °C');

Query compound follows.
*Q* Fill in: melting point of FC(F)(F)c1ccc(-c2cc(Oc3ccc4cccnc4c3)ncn2)c(Br)c1 is ___
*A* 185 to 187 °C
